I'd be grateful if you could share measured IC50 for these entries.
test system: Plasmodium falciparum; assay: Antimalarial activity against synchronized schizont stage transgenic Plasmodium falciparum 3D7 with C-terminal 3xTY1-fused HDAC1 knockdown assessed as parasite growth inhibition pretreated with glucosamine followed by compound treatment and incubated for 4 hrs followed by compound washout for thrice and subsequent culturing for 68 hrs by SYBR Green 1 staining based analysis; format: functional, organism-based

Form field IC50, entry Cl.Cn1cc(CNCC2CCN(c3ncc(C(=O)NO)cn3)CC2)c2ccccc21 [QUISINOSTAT HYDROCHLORIDE] : 12.4 nM

So, Cl.O=C(NO)c1cnc(N2CCC3(CCN(Cc4c[nH]c5ccccc45)C3)CC2)nc1 ? Its IC50 was 32.3 nM

Attribution: ChEMBL document CHEMBL4706683
